Entry source: patent US7625948B2

Assay: Test Example 6: determination of the concentration in plasma (unchanged form and metabolite, orbital venous plexus and portal vein, LC/MS)
Format: in vivo
Conditions: hamster, plasma from peripheral blood (orbital venous plexus), oral; 4 h after 30 mg/kg p.o., Syrian hamsters; read-out: Concentration in plasma, unaltered form, peripheral blood
Attribute: concentration at 4 h
Observation Type: concentration at 4 h

>>> value_reported("CCOC(=O)C(COC(=O)Cc1ccc(OC(=O)c2ccccc2-c2ccc(C(F)(F)F)cc2)cc1)(C(=O)OCC)c1ccccc1")
"< 200 nM"
>>> value_reported("COC(=O)C(COC(=O)Cc1ccc(NC(=O)c2ccccc2-c2ccc(C(F)(F)F)cc2)cc1)(C(=O)OC)c1ccccc1")
"< 200 nM"
>>> value_reported("CCOC(=O)C(COC(=O)Cc1ccc(NC(=O)c2ccccc2-c2ccc(C(F)(F)F)cc2)c(C(=O)N(C)C)c1)(C(=O)OCC)c1ccccc1")
"< 20 nM"
>>> value_reported("O=C(Cc1ccc(NC(=O)c2ccccc2-c2ccc(C(F)(F)F)cc2)cc1)OCC(C(=O)NCC(F)(F)F)(C(=O)NCC(F)(F)F)c1ccccc1")
"< 200 nM"

----------
Test system: HepG2 cells
Experiment: Test Example 2: inhibition of apolipoprotein B secretion from HepG2 cells, ELISA (also used for metabolites in Test Example 8)
Format: cell-based
Conditions: Homo sapiens, 24 hours, apo B in supernatant by ELISA, read-out: Test Example 2 Inhibition of apo B secretion IC50
pIC50: −log10 of the molar value.
Observation Type: pIC50

>>> value_reported("CC(=O)OCC(COC(C)=O)(COC(=O)Cc1ccc(NC(=O)c2ccccc2-c2ccc(C(F)(F)F)cc2)c(C(=O)N(C)C)c1)c1ccccc1")
8.45
>>> value_reported("CCOC(=O)C(COC(=O)Cc1ccc(NC(=O)c2ccccc2-c2ccc(C(F)(F)F)cc2)c(C(=O)OCc2ccccc2)c1)(C(=O)OCC)c1ccccc1")
7.39
>>> value_reported("CCOC(=O)C(COC(=O)Cc1ccc(NC(=O)c2ccccc2-c2ccc(C(F)(F)F)cc2)c(OCC)c1)(C(=O)OCC)c1ccccc1")
8.72
>>> value_reported("CCOC(=O)C(COC(=O)Cc1ccc(NC(=O)c2ccccc2-c2ccc(C(F)(F)F)cc2)c(N2CCCC2)c1)(C(=O)OCC)c1ccccc1")
8.28
>>> value_reported("CCNC(=O)C(COC(=O)Cc1ccc(NC(=O)c2ccccc2-c2ccc(C(F)(F)F)cc2)c(C(=O)N(C)C(C)C)c1)(C(=O)NCC)c1ccccc1")
8.15
>>> value_reported("CCCN(C)C(=O)c1cc(CC(=O)OCC(C(=O)OCC)(C(=O)OCC)c2ccccc2)ccc1NC(=O)c1ccccc1-c1ccc(C(F)(F)F)cc1")
9.16

----------
Target: Microsomal triglyceride transfer protein (MTP) from bovine liver (Bos taurus, UniProt P55156)
Construct: from tissue; host or cells: bovine liver
Sequence (P55156 12-887): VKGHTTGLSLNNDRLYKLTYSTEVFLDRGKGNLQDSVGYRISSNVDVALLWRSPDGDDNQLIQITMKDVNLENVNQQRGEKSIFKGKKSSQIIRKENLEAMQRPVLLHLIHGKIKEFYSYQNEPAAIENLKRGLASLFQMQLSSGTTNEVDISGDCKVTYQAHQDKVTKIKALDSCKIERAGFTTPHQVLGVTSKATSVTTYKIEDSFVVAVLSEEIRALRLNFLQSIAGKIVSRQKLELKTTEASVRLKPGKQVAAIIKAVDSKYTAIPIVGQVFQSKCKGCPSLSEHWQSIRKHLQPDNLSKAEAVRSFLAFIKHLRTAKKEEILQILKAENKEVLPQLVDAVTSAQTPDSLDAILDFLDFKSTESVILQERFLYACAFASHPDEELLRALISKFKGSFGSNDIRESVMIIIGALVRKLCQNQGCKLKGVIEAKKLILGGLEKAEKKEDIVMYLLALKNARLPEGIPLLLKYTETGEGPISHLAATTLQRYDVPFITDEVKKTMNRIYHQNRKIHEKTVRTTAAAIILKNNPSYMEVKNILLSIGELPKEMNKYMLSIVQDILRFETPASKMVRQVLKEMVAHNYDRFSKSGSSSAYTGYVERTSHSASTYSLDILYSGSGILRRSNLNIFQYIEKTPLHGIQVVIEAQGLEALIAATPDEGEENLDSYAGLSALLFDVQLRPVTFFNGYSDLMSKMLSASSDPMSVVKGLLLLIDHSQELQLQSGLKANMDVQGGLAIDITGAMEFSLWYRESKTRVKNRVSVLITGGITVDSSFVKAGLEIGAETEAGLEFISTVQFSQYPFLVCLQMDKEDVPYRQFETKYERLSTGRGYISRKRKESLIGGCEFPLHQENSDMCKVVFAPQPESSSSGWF
Sequence (P05307 21-510 partner): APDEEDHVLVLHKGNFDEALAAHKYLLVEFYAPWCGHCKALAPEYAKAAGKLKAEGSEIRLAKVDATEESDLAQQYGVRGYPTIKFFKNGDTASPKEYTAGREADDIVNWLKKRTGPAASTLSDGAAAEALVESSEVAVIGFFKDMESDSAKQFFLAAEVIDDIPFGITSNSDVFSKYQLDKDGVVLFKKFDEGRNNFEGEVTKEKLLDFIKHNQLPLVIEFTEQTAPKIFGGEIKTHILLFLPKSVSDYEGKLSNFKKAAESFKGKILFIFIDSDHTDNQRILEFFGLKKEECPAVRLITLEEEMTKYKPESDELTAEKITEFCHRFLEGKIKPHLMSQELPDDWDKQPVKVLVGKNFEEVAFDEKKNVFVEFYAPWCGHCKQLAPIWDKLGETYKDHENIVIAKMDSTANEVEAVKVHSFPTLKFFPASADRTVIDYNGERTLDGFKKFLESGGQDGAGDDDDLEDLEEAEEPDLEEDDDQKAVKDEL
Assay: Test Example 1: inhibition of interliposomal triglyceride (TG) transfer activity by MTP (also used for metabolites in Test Example 8)
Type: biochemical
Conditions: MTP-mediated 14C-triolein transfer between liposomes, 37° C., one hour; read-out: Test Example 1 MTP inhibition IC50
Attribute: IC50
Observation Type: IC50 (nM)

>>> value_reported("CC(C)COC(=O)C(COC(=O)Cc1ccc(NC(=O)c2ccccc2-c2ccc(C(F)(F)F)cc2)cc1)(C(=O)OCC(C)C)c1ccccc1")
16
>>> value_reported("CCCNC(=O)C(COC(=O)Cc1ccc(NC(=O)c2ccccc2-c2ccc(C(F)(F)F)cc2)cc1)(C(=O)NCCC)c1ccccc1")
1
>>> value_reported("O=C(OCCC1(C(=O)NCC(F)(F)F)c2ccccc2-c2ccccc21)c1ccc(NC(=O)c2ccccc2-c2ccc(C(F)(F)F)cc2)cc1")
3.47
>>> value_reported("CCOC(=O)C(COC(=O)Cn1ccc2c(NC(=O)c3ccccc3-c3ccc(C(F)(F)F)cc3)cccc21)(C(=O)OCC)c1ccccc1")
11
>>> value_reported("CCNC(=O)C(COC(=O)Cc1ccc(OC(=O)c2ccccc2-c2ccc(C(F)(F)F)cc2)cc1)(C(=O)NCC)c1ccccc1")
0.66
>>> value_reported("CCNC(=O)C(COC(=O)Cc1ccc(NC(=O)c2ccccc2Oc2ccccc2)cc1)(C(=O)NCC)c1ccccc1")
0.96
>>> value_reported("CCNC(=O)C(COC(=O)Cc1ccc(NC(=O)c2ccccc2-c2ccc(C(F)(F)F)cc2)c(C)c1)(C(=O)NCC)c1ccccc1")
0.39
>>> value_reported("CCCNC(=O)C(CCOC(=O)Cc1ccc(NC(=O)c2ccccc2-c2ccc(C(F)(F)F)cc2)cc1)(C(=O)NCCC)c1ccccc1")
20
>>> value_reported("CCOC(=O)C(CCOC(=O)Cc1cccc(NC(=O)c2ccccc2-c2ccc(C(F)(F)F)cc2)c1C)(C(=O)OCC)c1ccccc1")
3.1
>>> value_reported("CCNC(=O)C(COC(=O)Cc1ccc(NC(=O)c2ccccc2-c2ccc(C(F)(F)F)cc2)cc1)(C(=O)NCC)c1ccccc1")
0.6
>>> value_reported("CCOC(=O)C(COC(=O)Cc1ccc(NC(=O)c2ccccc2-c2ccc(C(F)(F)F)cc2)c(C(=O)N(C)C)c1)(C(=O)OCC)c1ccccc1")
1.4
>>> value_reported("CCNC(=O)C(COC(=O)Cc1ccc(NC(=O)c2ccccc2-c2ccc(C(F)(F)F)cc2)c(CC)c1)(C(=O)NCC)c1ccccc1")
0.66
>>> value_reported("O=C(OCCC(C(=O)NCC(F)(F)F)c1ccccc1)c1ccc(NC(=O)c2ccccc2-c2ccc(C(F)(F)F)cc2)cc1 (stereo not shown)")
22
